// values below are reported survival
Test system: Wild type
Test: S. aureus survival, RN4220 and DeltatarO strains – OD600, teichoic acid synthesis inhibitors, primary screen (AID 463173)
Conditions: S. aureus RN4220 wild type/DeltatarO growth, OD600, 18 h, stronger effect = lower value, screened at 18.75 µg/mL (by protocol)
About 1,700 (3.3%) of roughly 52,000 compounds were called active. Only a selection was taken, and actives are over-represented in it overall.
Result type: survival

[[record]]
compound = "Cc1cc(N2CCCCC2)nc2ccc(NC(=O)c3cccc(Cl)c3)cc12"
test_target = "Wild type"
measured = "-2% (active)"

[[record]]
compound = "CCCCNC(=O)C(CC)Sc1nc2ccccc2c(=O)n1CCc1ccc(OC)c(OC)c1 (stereo not given)"
test_target = "Wild type"
measured = "127% (inactive)"

[[record]]
compound = "Cc1cc(N2CCCCC2)nc2ccc(NC(=O)c3cccc(F)c3)cc12"
test_target = "Wild type"
measured = "46% (inactive)"

[[record]]
compound = "Cc1ccc(NC(=O)N2CCC(n3c(C)nc4cccnc43)CC2)c(Cl)c1"
test_target = "Wild type"
measured = "71% (inactive)"

[[record]]
compound = "Cc1cc(N2CCN(C)CC2)nc2ccc(NC(=O)c3ccc(C(C)(C)C)cc3)cc12"
test_target = "Wild type"
measured = "-20% (active)"

